# measurement.target: GST-Nv-NF-kB (Cys allele) (Nematostella vectensis, UniProt E5G601 2-411)
# Sequence: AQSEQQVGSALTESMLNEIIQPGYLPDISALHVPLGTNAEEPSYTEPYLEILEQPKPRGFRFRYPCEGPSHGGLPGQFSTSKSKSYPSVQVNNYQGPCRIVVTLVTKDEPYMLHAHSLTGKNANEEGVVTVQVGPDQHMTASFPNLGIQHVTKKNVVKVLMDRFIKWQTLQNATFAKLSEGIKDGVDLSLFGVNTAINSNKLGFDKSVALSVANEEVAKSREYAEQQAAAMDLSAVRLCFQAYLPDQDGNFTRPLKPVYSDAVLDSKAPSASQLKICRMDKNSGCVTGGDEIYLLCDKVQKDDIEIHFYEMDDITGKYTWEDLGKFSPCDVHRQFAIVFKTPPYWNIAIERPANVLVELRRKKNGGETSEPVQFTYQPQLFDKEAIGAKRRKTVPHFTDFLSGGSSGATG
# experiment.description: protein-binding microarray (PBM); PBM: ~300 nM protein, 6 mM HEPES pH 7.8, 80 mM KCl, 0.5 mM EDTA, 0.5 mM EGTA, 6% glycerol, 35 ng/ul poly-dIdC, 1% milk, 1 h, room temperature; high values mean tight binding
# conditions.used: dsDNA, one strand shown
attribute.measured: binding signal

> print(dat)
                              sequence.chain  value.reported
 1  CCGATTAACATCAAATATTTCCCTGATGTTAATCGGGTCTTGATTCGCTTGACGCTGCTG    6.57 z-score
 2  CCGATTAACATCAGATTCCCCCATGATGTTAATCGGGTCTTGATTCGCTTGACGCTGCTG    7.43 z-score
 3  CCGATTAACATCACATGGGAAACTGATGTTAATCGGGTCTTGATTCGCTTGACGCTGCTG    2.14 z-score
 4  CCGATTAACATCACCCTTCCCCCTGATGTTAATCGGGTCTTGATTCGCTTGACGCTGCTG    4.49 z-score
 5  CCGATTAACATCACCAAATCCCCTGATGTTAATCGGGTCTTGATTCGCTTGACGCTGCTG    6.55 z-score
 6  CCGATTAACATCACCCACCCCCCTGATGTTAATCGGGTCTTGATTCGCTTGACGCTGCTG    2.85 z-score
 7  CCGATTAACATCAGGGGAAAGGATGATGTTAATCGGGTCTTGATTCGCTTGACGCTGCTG     5.7 z-score
 8  CCGATTAACATCAGGGCCTCCCCTGATGTTAATCGGGTCTTGATTCGCTTGACGCTGCTG    4.43 z-score
 9  CCGATTAACATCAGGGATATTTATGATGTTAATCGGGTCTTGATTCGCTTGACGCTGCTG     2.7 z-score
10  CCGATTAACATCACCTTTTCCCCTGATGTTAATCGGGTCTTGATTCGCTTGACGCTGCTG    6.89 z-score
11  CCGATTAACATCAGGTTTTCCCATGATGTTAATCGGGTCTTGATTCGCTTGACGCTGCTG    3.91 z-score
12  CCGATTAACATCAAGGTGTTTCCTGATGTTAATCGGGTCTTGATTCGCTTGACGCTGCTG    1.48 z-score
13  CCGATTAACATCAAAGCATCCCCTGATGTTAATCGGGTCTTGATTCGCTTGACGCTGCTG    5.06 z-score
14  CCGATTAACATCAACGTGGGAAATGATGTTAATCGGGTCTTGATTCGCTTGACGCTGCTG    2.36 z-score
15  CCGATTAACATCATTATGGGAAATGATGTTAATCGGGTCTTGATTCGCTTGACGCTGCTG    2.63 z-score
16  CCGATTAACATCAAGAAAACCCCTGATGTTAATCGGGTCTTGATTCGCTTGACGCTGCTG     7.2 z-score
17  CCGATTAACATCAGGGGGATATATGATGTTAATCGGGTCTTGATTCGCTTGACGCTGCTG    5.67 z-score
18  CCGATTAACATCAATCACCCCCCTGATGTTAATCGGGTCTTGATTCGCTTGACGCTGCTG    4.27 z-score
19  CCGATTAACATCACTAAATTCCCTGATGTTAATCGGGTCTTGATTCGCTTGACGCTGCTG    5.35 z-score
20  CCGATTAACATCAATAATTCCCCTGATGTTAATCGGGTCTTGATTCGCTTGACGCTGCTG    10.6 z-score
21  CCGATTAACATCACCCCAGCCCCTGATGTTAATCGGGTCTTGATTCGCTTGACGCTGCTG    1.93 z-score
22  CCGATTAACATCAGGGAAAGCACTGATGTTAATCGGGTCTTGATTCGCTTGACGCTGCTG    4.73 z-score
23  CCGATTAACATCACGGAAAACCCTGATGTTAATCGGGTCTTGATTCGCTTGACGCTGCTG    2.07 z-score
24  CCGATTAACATCAAGGACTTCCCTGATGTTAATCGGGTCTTGATTCGCTTGACGCTGCTG    3.39 z-score
25  CCGATTAACATCAACGGATTCCCTGATGTTAATCGGGTCTTGATTCGCTTGACGCTGCTG    3.57 z-score
26  CCGATTAACATCAGGGGGACAAATGATGTTAATCGGGTCTTGATTCGCTTGACGCTGCTG    4.84 z-score
27  CCGATTAACATCAAATAGTCCCCTGATGTTAATCGGGTCTTGATTCGCTTGACGCTGCTG    7.06 z-score
28  CCGATTAACATCAGGGGGTTGACTGATGTTAATCGGGTCTTGATTCGCTTGACGCTGCTG     3.2 z-score
29  CCGATTAACATCACGGGGGAATATGATGTTAATCGGGTCTTGATTCGCTTGACGCTGCTG    7.14 z-score
30  CCGATTAACATCAGGAGATACCCTGATGTTAATCGGGTCTTGATTCGCTTGACGCTGCTG    3.44 z-score
31  CCGATTAACATCAAGTAATCCCCTGATGTTAATCGGGTCTTGATTCGCTTGACGCTGCTG    7.72 z-score
32  CCGATTAACATCAGGGGAAGTACTGATGTTAATCGGGTCTTGATTCGCTTGACGCTGCTG    8.22 z-score
33  CCGATTAACATCAGATTTCCCCATGATGTTAATCGGGTCTTGATTCGCTTGACGCTGCTG    8.26 z-score
34  CCGATTAACATCAAAAATACCCCTGATGTTAATCGGGTCTTGATTCGCTTGACGCTGCTG    8.45 z-score
35  CCGATTAACATCAAGAATCCCCCTGATGTTAATCGGGTCTTGATTCGCTTGACGCTGCTG    9.82 z-score
36  CCGATTAACATCAGAATCCCCCCTGATGTTAATCGGGTCTTGATTCGCTTGACGCTGCTG    7.84 z-score

====

# measurement.target: GST-Nv-NF-kB (Ser allele) (Nematostella vectensis, UniProt A7UNT2 2-411)
# Sequence: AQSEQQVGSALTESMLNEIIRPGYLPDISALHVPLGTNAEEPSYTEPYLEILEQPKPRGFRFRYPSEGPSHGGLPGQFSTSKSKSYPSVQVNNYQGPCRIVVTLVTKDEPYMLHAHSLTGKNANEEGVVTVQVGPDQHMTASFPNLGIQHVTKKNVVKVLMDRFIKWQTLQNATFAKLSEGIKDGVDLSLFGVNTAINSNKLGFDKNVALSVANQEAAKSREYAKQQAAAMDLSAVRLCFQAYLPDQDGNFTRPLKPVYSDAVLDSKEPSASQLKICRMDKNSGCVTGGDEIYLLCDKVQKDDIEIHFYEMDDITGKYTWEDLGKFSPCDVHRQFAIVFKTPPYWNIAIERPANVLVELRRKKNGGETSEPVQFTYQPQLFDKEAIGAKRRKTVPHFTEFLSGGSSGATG
# experiment.description: protein-binding microarray (PBM); PBM: ~300 nM protein, 6 mM HEPES pH 7.8, 80 mM KCl, 0.5 mM EDTA, 0.5 mM EGTA, 6% glycerol, 35 ng/ul poly-dIdC, 1% milk, 1 h, room temperature; Ap Aiptasia and Nv Nematostella (sea anemones) / Co Capsaspora / Aq Amphimedon (sponge) / Dm Drosophila / Hu human; RHD is the Rel homology domain; high values mean tight binding
# conditions.used: dsDNA, one strand shown
The entries below are paired with their reported binding signal.
attribute.measured: binding signal (z-score)

> print(dat)
                              sequence.chain  value.reported
 1  CCGATTAACATCAAATTCTCCCCTGATGTTAATCGGGTCTTGATTCGCTTGACGCTGCTG            7.76
 2  CCGATTAACATCAGGAATCCCCATGATGTTAATCGGGTCTTGATTCGCTTGACGCTGCTG            7.76
 3  CCGATTAACATCACGATTTCCCCTGATGTTAATCGGGTCTTGATTCGCTTGACGCTGCTG            10.8
 4  CCGATTAACATCAGGGACTTCCATGATGTTAATCGGGTCTTGATTCGCTTGACGCTGCTG            5.01
 5  CCGATTAACATCACGGAAATACCTGATGTTAATCGGGTCTTGATTCGCTTGACGCTGCTG            1.39
 6  CCGATTAACATCAGATTTTCCCATGATGTTAATCGGGTCTTGATTCGCTTGACGCTGCTG            6.26
 7  CCGATTAACATCACAAAAGCCCCTGATGTTAATCGGGTCTTGATTCGCTTGACGCTGCTG             7.4
 8  CCGATTAACATCAAGGGGGAATATGATGTTAATCGGGTCTTGATTCGCTTGACGCTGCTG            9.33
 9  CCGATTAACATCACAACTTTCCCTGATGTTAATCGGGTCTTGATTCGCTTGACGCTGCTG            6.13
10  CCGATTAACATCAGGGGATATTATGATGTTAATCGGGTCTTGATTCGCTTGACGCTGCTG            9.17
11  CCGATTAACATCACGGGGGTTCCTGATGTTAATCGGGTCTTGATTCGCTTGACGCTGCTG            4.99
12  CCGATTAACATCAGGGGGATTAATGATGTTAATCGGGTCTTGATTCGCTTGACGCTGCTG            7.21
13  CCGATTAACATCAGGGTGGGAAATGATGTTAATCGGGTCTTGATTCGCTTGACGCTGCTG            2.77
14  CCGATTAACATCAGGGGATGAATTGATGTTAATCGGGTCTTGATTCGCTTGACGCTGCTG            5.12
15  CCGATTAACATCAGGGGAAGCACTGATGTTAATCGGGTCTTGATTCGCTTGACGCTGCTG            6.99
16  CCGATTAACATCACGGGATTTCGTGATGTTAATCGGGTCTTGATTCGCTTGACGCTGCTG            1.43
17  CCGATTAACATCAGGGGGACTAATGATGTTAATCGGGTCTTGATTCGCTTGACGCTGCTG             4.4
18  CCGATTAACATCAGCAACCCCCCTGATGTTAATCGGGTCTTGATTCGCTTGACGCTGCTG            3.86
